The reader will find reported IC50 values listed item by item below.
molecular target: MAO B (Homo sapiens, UniProt P27338); construct: 20 μg of human brain homogenate (without AD pathology); assay: MAO B 18F-fluoro deprenyl competition assay in human HC brain homogenate
Sequence (P27338 whole entry): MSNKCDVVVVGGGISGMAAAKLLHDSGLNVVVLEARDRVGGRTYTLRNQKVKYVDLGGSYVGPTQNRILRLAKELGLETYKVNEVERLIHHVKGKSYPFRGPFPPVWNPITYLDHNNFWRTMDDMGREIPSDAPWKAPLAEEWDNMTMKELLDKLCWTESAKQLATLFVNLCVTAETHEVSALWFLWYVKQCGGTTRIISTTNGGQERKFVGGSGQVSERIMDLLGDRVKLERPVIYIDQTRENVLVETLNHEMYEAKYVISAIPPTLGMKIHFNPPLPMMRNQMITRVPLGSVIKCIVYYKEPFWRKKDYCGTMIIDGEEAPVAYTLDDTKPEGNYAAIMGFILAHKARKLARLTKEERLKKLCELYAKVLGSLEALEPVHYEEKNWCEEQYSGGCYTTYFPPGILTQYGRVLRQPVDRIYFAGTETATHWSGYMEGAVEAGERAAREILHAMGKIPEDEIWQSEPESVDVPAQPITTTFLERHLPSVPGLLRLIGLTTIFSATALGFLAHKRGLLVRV
assay-readout: IC50

| compound | result |
| --- | --- |
| [18F]c1ncccc1-c1ccc2c(n1)[nH]c1ccncc12 [Compound ^18F-4] | > 1 µM |
| Fc1ncccc1-c1ccc2c(n1)[nH]c1ccncc12 | > 1 µM |

----------
experiment: PK studies in healthy mice (dynamic PET); format: in vivo, NMRI mice; conditions: healthy mice, after iv injection
Marks after values point to notes of the source that are not given here.
assay-readout: bone uptake in shoulder joint at 60 min (de-fluorination)

| compound | result |
| --- | --- |
| Fc1cccnc1-c1ccc2c(n1)[nH]c1ccncc12 [Comparative Example 10 (F-10)] | (6.2% ID/g) |
| Fc1ccc(-c2ccc3c(n2)[nH]c2ccncc23)cn1 [Compound F-2] | (6.2% ID/g) |
